Origin of measurements: ChEMBL document CHEMBL1153381

test: Inhibition of cJNK phosphorylation by pepJIP1 displacement DELFIA assay
IC50 less than 300 nM is class 1; IC50 greater than or equal to 300 nM is class 0.

Observe how each entry below is paired with its result.
structure: Cc1ccc2nc(Sc3ncc([N+](=O)[O-])s3)oc2c1
label: class 1
//
structure: O=[N+]([O-])c1ccc2nc(Sc3ncc([N+](=O)[O-])s3)[nH]c2c1
label: class 0
//
structure: O=[N+]([O-])c1cnc(Sc2nc3cc(Cl)ccc3s2)s1
label: class 0
//
structure: O=[N+]([O-])c1cnc(Sc2nc3cc(C(F)(F)F)ccc3[nH]2)s1
label: class 1
//
structure: Cn1c(Sc2ncc([N+](=O)[O-])s2)nc2ccccc21
label: class 0
//
structure: O=[N+]([O-])c1cnc(Sc2nc3ccccc3s2)s1
label: class 1
//
structure: O=[N+]([O-])c1cnc(Sc2nc3ncccc3s2)s1
label: class 0
//
structure: O=[N+]([O-])c1cnc(Sc2nc3ccccc3[nH]2)s1
label: class 0
//
structure: CO/N=C(\C(=O)Sc1nc2ccccc2s1)c1csc(N)n1
label: class 0
//
structure: COc1ccc2sc(Sc3ncc([N+](=O)[O-])s3)nc2c1
label: class 1

Exam item: For `COc1ccc2[nH]c(Sc3ncc([N+](=O)[O-])s3)nc2c1` , is the recorded IC50 below the cut-off of 300 nM?
Marked response: class 1

Exam item: Now give it for `O=[N+]([O-])c1cnc(Sc2nc3ccc(Cl)cc3s2)s1` too.
Marked response: class 0

----------
experiment: Inhibition of cJNK phosphorylation by pepJIP1 displacement DELFIA assay
pIC50: −log10 of the molar value.
pIC50 vs 7: at or above is 1 (yes), below is 0 (no).

Examples from the recorded data:
structure: Nc1nc(Sc2ncc([N+](=O)[O-])s2)c2nc[nH]c2n1
label: 0 (no)
--
structure: Cc1ccc2[nH]c(Sc3ncc([N+](=O)[O-])s3)nc2c1
label: 1 (yes)
--
structure: O=[N+]([O-])c1cnc(Sc2nc3ccccc3o2)s1
label: 0 (no)
--
structure: O=[N+]([O-])c1cnc(Sc2nc3cc(Cl)c(Cl)cc3[nH]2)s1
label: 0 (no)

Exam item: Assess whether reported pIC50 for `Nc1ncnc2nc(Sc3ncc([N+](=O)[O-])s3)[nH]c12` sits at 7 or higher.
Marked response: 0 (no)

----------
assay: Metabolic stability in rat plasma assessed as drug level remaining after 1 hr; format: ADME, cell-free; settings: read-out: Stability
endpoint: remaining at 1 h (%)
Only the number, expressed in %, is required.

Exam item: Looking for the measured remaining at 1 h of `O=[N+]([O-])c1cnc(Sc2nc3ccccc3s2)s1` , can you help?
Marked response: 80

----------
Recorded IC50 for the following molecules
molecular target: Mitogen-activated protein kinase 14 (Homo sapiens); assay: Inhibition of p38alpha
Sequence (Q16539 whole entry): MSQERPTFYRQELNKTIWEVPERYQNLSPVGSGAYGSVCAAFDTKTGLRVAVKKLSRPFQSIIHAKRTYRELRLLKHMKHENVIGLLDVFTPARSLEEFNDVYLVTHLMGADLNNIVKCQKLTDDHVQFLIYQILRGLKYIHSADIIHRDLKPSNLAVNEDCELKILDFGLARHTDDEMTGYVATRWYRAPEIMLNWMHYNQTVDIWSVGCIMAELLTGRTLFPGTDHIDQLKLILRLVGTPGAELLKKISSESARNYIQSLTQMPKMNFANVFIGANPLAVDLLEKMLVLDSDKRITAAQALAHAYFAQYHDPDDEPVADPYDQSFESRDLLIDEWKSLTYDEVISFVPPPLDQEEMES

structure: COc1ccc2sc(Sc3ncc([N+](=O)[O-])s3)nc2c1
study-target: Mitogen-activated protein kinase 14 (Homo sapiens)
result: > 100 µM

Please examine the following record next.
Exam item: Checklist item: IC50 tested on Mitogen-activated protein kinase 14 (Homo sapiens), entry `O=[N+]([O-])c1cnc(Sc2nc3ccccc3s2)s1` , value?
Marked response: > 100 µM
